property-name: logP

1. CCCCCCCC(=O)NN ... 1
2. C[N+](C)(C)Cc1cccc(O)c1.[Br-] ... -2.4
3. CN(CCO)N=Nc1ccccc1 ... 1.71
4. CN(C)c1cc(Cc2cnc(N)nc2N)cc(N(C)C)c1 ... 1.6
5. CCCc1nnc(SC)n(N)c1=O ... 0.93
6. N#CC(=Cc1ccccc1)C(=O)Nc1ccccc1 ... 3.41
7. CN(C)c1ccc2c(c1)C(c1ccccc1)=NCC(=O)N2 ... 2.43
8. O=C1CN=C(c2ccccc2F)c2cc([N+](=O)[O-])ccc2N1 ... 2.15
9. CSc1ccc(NS(=O)(=O)C(F)(F)F)cc1 ... 3.74
10. NC(=S)NN=Cc1cccc(O)c1 ... 1.61
11. CC(C)CN(CC(C)C)C(=O)C=Cc1ccc2c(c1)OCO2 ... 4.37
12. CC1N=C(c2ccccc2Cl)c2cc(Cl)ccc2N(C)C1=O (stereo not drawn) ... 3.4
13. Nc1nc(N)nc(-c2cccc(Cl)c2)n1 ... 2.33
14. O=C(O)C1CCc2ccccc2O1 (stereo not drawn) ... 1.9
15. O=C1NC(=S)SC1=CC=Cc1ccc([N+](=O)[O-])o1 ... 0.93
16. NS(=O)(=O)c1nc2ccc(O)cc2s1 ... 1.13
17. CN=C1SC(=Cc2ccc([N+](=O)[O-])o2)C(=O)N1C ... 1.42
18. CCOP(=S)(OCC)Oc1ccccc1 ... 3.46
19. Nc1nc(N)nc(-c2cc(Cl)ccc2F)n1 ... 1.81
20. CNC(=O)ON=C(C)C(C)(C)[N+](=O)[O-] ... 0.66
21. O=[N+]([O-])c1nccn1C1SC(CO)C(O)C(O)C1O (stereo not drawn) ... -0.66
22. CCOC(=O)c1c(OC)cc(Cc2cnc(N)nc2N)cc1OC ... 1.25
23. CNC(=O)c1ccccc1/N=N/N(C)C ... 1.83
24. CCN(CC)CCNC(=O)c1cc(Br)ccc1OC ... 3.2
25. COC(=O)C(C#N)=NNc1ccc(C(F)(F)F)cc1[N+](=O)[O-] ... 3.44
26. COC(=O)N(C)SN(C)C(=O)Oc1cccc2c1OC(C)(C)C2 ... 3
27. CN(C)CCC=C1c2ccccc2CCc2c(Cl)cccc21 ... 5.55
28. COc1cc(Cc2cnc(N)nc2N)ccc1C ... 2.14

###

Property: logP; scope: individual compounds
property-name: logP

1) OCC1OC(Oc2cc(OC3OC(CO)C(O)C(O)C3O)c(I)cc2I)C(O)C(O)C1O (stereo not drawn) ... -0.25
2) CNC(=O)Oc1cccc([N+](=O)[O-])c1 ... 1.39
3) CC1=Nc2c(C)cccc2S(=O)(=O)N1 ... 0.52
4) CSc1nnc(C2CCCCC2)c(=O)n1N ... 2.14
5) CC(=O)c1ccccc1NC(=O)C(Cl)Cl ... 2.65
6) Cc1cc(-n2c(=O)cc(C)n2C)nc(C)n1 ... 0.24
7) CNP(=O)(OC)Oc1cc(Cl)c(Cl)cc1Cl (stereo not drawn) ... 3.06
8) CNc1ncnc2sccc12 ... 1.43
9) Nc1nc(N)nc(-c2cccc(Br)c2)n1 ... 2.44
10) CON(C)C(=O)Nc1cccc(C(C)(C)C)c1 ... 3.21
11) Nc1nc(N)nc(-c2cc(Br)ccc2F)n1 ... 1.94
12) Brc1n[nH]c(Br)n1 ... 2.24
13) Nc1ccccc1OC1OC(CO)C(O)C(O)C1O (stereo not drawn) ... -1.23
14) Nc1nc(N)nc(-c2cc(Br)ccc2Br)n1 ... 2.09
15) O=C(Nc1ccccc1)NC(CO)(CO)CO ... 0.43
16) COc1ccccc1C1=NCC(=O)Nc2ccc(Cl)cc21 ... 2.63
17) CCCCCCCC[n+]1ccccc1C.[I-] ... -0.77
18) CCCCCCCCCCCCCC[n+]1ccc(C)cc1C.[I-] ... 2.47
19) Clc1ccc(-c2ccc(Cl)c(Cl)c2Cl)c(Cl)c1 ... 6.61
20) COCCn1ccnc1[N+](=O)[O-] ... 0.12
21) COCN1C(=O)CN=C(c2ccccc2)c2cc([N+](=O)[O-])ccc21 ... 2.05
22) Nc1ncnc2ccccc12 ... 1.28
23) CNN=CCCc1ccccc1 ... 1
24) COC(=O)COc1c(OC)cc(Cc2cnc(N)nc2N)cc1OC ... 0.55
25) Cc1ccccc1C1=NCC(=O)Nc2ccc(Cl)cc21 ... 3.12
26) CN(C)S(=O)(=O)c1ccccc1 ... 1.35
27) CSCN1C(=O)CN=C(c2ccccc2)c2cc(N)ccc21 ... 1.92
28) COc1cc(Cc2cnc(N)nc2N)c(Br)cc1Br ... 3.17

###

Residues, ends and D or L forms follow the SMILES beside them. *: point of attachment. Cbz = O=C(OCc1ccccc1)*
property-name: logP

1. CCCCc1ccc2nc(C(F)(F)F)[nH]c2c1 ... 4.27
2. OCC(CO)(CO)CBr ... -0.7
3. O=C1CN=C(c2ccc(Br)cc2)c2cc(Br)ccc2N1 ... 4.04
4. COc1ccc(OC)c(NC2=NCCN2)c1 ... 0.97
5. COCN1C(=O)CN=C(c2ccccc2)c2cc(N)ccc21 ... 1.32
6. CNc1nnc(C(C)C)c(=O)n1N ... 0.3
7. COc1cc(Cc2cnc(N)nc2N)cc2c1OCO2 ... 1.38
8. CC/N=C(N)/N=C(\N)Nc1ccc(Cl)cc1 ... 2.14
9. CN(C)C(=O)OCc1ccccc1 ... 2.16
10. CCOC(=O)C(=Cc1ccc(C)cc1)C(C)=O ... 2.63
11. CCc1cnc2cccc(C)n2c1=O ... 1.79
12. CC(C)C(NC(=O)C(Cc1ccccc1)NC(=O)OCc1ccccc1)C(=O)O (stereo not drawn) (Cbz-Phe-Val-OH; configuration not given here) ... 2.88
13. Cc1ccccc1N1C(=O)CCC1=O ... 0.29
14. c1ccc(Sc2cnn[nH]2)cc1 ... 2.65
15. O=C(O)COc1ccc(N=Nc2ccccc2)cc1 ... 2.99
16. CC1=Nc2c([N+](=O)[O-])cc(Cl)cc2S(=O)(=O)N1 ... 0.85
17. CCCNCC(=O)NC(=O)C=[N+]=[N-] ... -0.24
18. CC(=O)Oc1cccc(C(F)(F)F)c1 ... 2.63
19. CC1CN(N=O)CC(C)N1N=O (configuration not stated) ... 0.08
20. Nc1cc(OCC(=O)O)ccc1Cl ... 1.16
21. CCOc1cc(Cc2cnc(N)nc2N)cc(OC)c1C(C)(C)O ... 2.11
22. CCCC(=O)N(C)SN(C)C(=O)Oc1cccc2c1OC(C)(C)C2 ... 3.8
23. CCCCCCCCCCCC[n+]1ccc(C)c(C)c1.[I-] ... 1.75
24. CCOC(=O)C(=Cc1cccc(OC)c1)C(=O)OCC ... 3.18
25. CC(=O)c1ccc(N2C(N)=NC(N)=NC2(C)C)cc1 ... -0.04
26. CC(=O)Nc1cnc2ccccc2c1 ... 1.92
27. COP(=O)(OC)Oc1ccc([N+](=O)[O-])c(C)c1 ... 1.69

###

Property: logP; scope: individual compounds
property-name: logP

1) Cc1ncc([N+](=O)[O-])n1CC(O)CCl (centres undefined) ... 0.6
2) CCOC(=O)C(=Cc1ccccc1Cl)C(=O)OCC ... 3.15
3) CN(C)c1ccc2c(c1)C(=O)OC2(C)C ... 2.42
4) CCCCCCCCCCCCS(=O)(=O)[O-].[Na+] ... 0.96
5) CCCOC(=O)NC ... 0.95
6) O=C(O)Cc1ccc(OCc2ccccc2)cc1 ... 2.72
7) CON=CCCc1ccccc1 ... 2.14
8) CC(=O)C(C#N)=NNc1ccc(SC(F)(F)F)cc1 ... 5.04
9) COc1cc(Cc2cnc(N)nc2N)cc(OC)c1C(C)(C)O ... 1.49
10) CON(C)C(=O)Nc1ccc(C(C)C)cc1 ... 2.95
11) COc1cc(Cc2cnc(N)nc2N)c(Cl)c(OC)c1 ... 2.13
12) CN(Cc1ccccc1)N=Nc1ccc(C#N)cc1 ... 3.82
13) Cc1nonc1-c1ccccn1 ... 2.09
14) OCC1OC(SCCCc2ccccc2)C(O)C(O)C1O (centres undefined) ... 0.38
15) O=[N+]([O-])c1nccn1CC(O)CCl (centres undefined) ... 0.15
16) O=C(O)Cc1ccc(OCc2ccccc2)c(Br)c1 ... 3.51
17) CCN1C(=O)CN=C(c2ccccc2)c2cc(N)ccc21 ... 1.81
18) C#CC(C=C)(CC)OC(N)=O (centres undefined) ... 1.09
19) CC(C)c1nnc(N2CCOCC2)n(N)c1=O ... 0.49
20) CNc1cc(Cc2cnc(N)nc2N)cc(NC)c1 ... 0.44
21) CC(=O)C(C#N)=NNc1cccc(Cl)c1 ... 3.9
22) Cc1ccoc1CN(C)C ... 1.63
23) NS(=O)(=O)c1ccc2c(c1)S(=O)(=O)NC(Cc1ccccc1)N2 (centres undefined) ... 1.03
24) CCCOc1cccc(O)c1 ... 2.59
25) CN1C(=O)C(=Cc2ccc([N+](=O)[O-])o2)SC1=S ... 1.06
26) CC1CNC(=Nc2ncc([N+](=O)[O-])s2)N1C (centres undefined) ... 2.02
27) CN1C(=O)CN=C(c2ccccc2)c2cc(N)ccc21 ... 1.46
28) CC1CN(C(=O)c2ccccc2)CC(C)N1N=O (centres undefined) ... 1.04
29) CCN(CC)CCCNC(=O)c1ccccc1OC ... 1.76
